System name: PI3K p110α/p85α (human) (Homo sapiens (Human))
Protocol: PI3K p110α/p85α (human), non-radioactive assay (HTRF)
Type: biochemical
Conditions: read-out: IC50 (PI3Kalpha)
pIC50: −log10 of the molar value. Where a name gives a salt, the structure may show the parent alone.
Endpoint name: pIC50

| Molecule | pIC50 |
| --- | --- |
| COc1cc2ncc3c(c2cc1-c1cnn(C)c1)n(-c1ncncc1F)c(=O)n3C [Compound Example 31, hydrochloride] | < 4.52 |
| CCn1cc(-c2cc3c(cc2OC)ncc2c3n(-c3c(C)cncc3F)c(=O)n2C)cn1 [Compound Example 38] | < 4.52 |
| COc1cc2ncc3c(c2cc1-c1cn(C)nc1C)n(-c1c(F)cncc1OC)c(=O)n3C [Compound Example 4] | < 5.30 |

Now for the molecule whose pIC50 we want.
Note down pIC50 recorded for COc1cc2ncc3c(c2cc1-c1cnn(C)c1)n(-c1ccncc1OC)c(=O)n3C [Compound Example 28]
< 4.52

====

System name: purified human recombinant ATM (ataxia telangiectasia mutated), full length (Homo sapiens (Human), UniProt Q13315)
Sequence (Q13315 whole entry, change not shown): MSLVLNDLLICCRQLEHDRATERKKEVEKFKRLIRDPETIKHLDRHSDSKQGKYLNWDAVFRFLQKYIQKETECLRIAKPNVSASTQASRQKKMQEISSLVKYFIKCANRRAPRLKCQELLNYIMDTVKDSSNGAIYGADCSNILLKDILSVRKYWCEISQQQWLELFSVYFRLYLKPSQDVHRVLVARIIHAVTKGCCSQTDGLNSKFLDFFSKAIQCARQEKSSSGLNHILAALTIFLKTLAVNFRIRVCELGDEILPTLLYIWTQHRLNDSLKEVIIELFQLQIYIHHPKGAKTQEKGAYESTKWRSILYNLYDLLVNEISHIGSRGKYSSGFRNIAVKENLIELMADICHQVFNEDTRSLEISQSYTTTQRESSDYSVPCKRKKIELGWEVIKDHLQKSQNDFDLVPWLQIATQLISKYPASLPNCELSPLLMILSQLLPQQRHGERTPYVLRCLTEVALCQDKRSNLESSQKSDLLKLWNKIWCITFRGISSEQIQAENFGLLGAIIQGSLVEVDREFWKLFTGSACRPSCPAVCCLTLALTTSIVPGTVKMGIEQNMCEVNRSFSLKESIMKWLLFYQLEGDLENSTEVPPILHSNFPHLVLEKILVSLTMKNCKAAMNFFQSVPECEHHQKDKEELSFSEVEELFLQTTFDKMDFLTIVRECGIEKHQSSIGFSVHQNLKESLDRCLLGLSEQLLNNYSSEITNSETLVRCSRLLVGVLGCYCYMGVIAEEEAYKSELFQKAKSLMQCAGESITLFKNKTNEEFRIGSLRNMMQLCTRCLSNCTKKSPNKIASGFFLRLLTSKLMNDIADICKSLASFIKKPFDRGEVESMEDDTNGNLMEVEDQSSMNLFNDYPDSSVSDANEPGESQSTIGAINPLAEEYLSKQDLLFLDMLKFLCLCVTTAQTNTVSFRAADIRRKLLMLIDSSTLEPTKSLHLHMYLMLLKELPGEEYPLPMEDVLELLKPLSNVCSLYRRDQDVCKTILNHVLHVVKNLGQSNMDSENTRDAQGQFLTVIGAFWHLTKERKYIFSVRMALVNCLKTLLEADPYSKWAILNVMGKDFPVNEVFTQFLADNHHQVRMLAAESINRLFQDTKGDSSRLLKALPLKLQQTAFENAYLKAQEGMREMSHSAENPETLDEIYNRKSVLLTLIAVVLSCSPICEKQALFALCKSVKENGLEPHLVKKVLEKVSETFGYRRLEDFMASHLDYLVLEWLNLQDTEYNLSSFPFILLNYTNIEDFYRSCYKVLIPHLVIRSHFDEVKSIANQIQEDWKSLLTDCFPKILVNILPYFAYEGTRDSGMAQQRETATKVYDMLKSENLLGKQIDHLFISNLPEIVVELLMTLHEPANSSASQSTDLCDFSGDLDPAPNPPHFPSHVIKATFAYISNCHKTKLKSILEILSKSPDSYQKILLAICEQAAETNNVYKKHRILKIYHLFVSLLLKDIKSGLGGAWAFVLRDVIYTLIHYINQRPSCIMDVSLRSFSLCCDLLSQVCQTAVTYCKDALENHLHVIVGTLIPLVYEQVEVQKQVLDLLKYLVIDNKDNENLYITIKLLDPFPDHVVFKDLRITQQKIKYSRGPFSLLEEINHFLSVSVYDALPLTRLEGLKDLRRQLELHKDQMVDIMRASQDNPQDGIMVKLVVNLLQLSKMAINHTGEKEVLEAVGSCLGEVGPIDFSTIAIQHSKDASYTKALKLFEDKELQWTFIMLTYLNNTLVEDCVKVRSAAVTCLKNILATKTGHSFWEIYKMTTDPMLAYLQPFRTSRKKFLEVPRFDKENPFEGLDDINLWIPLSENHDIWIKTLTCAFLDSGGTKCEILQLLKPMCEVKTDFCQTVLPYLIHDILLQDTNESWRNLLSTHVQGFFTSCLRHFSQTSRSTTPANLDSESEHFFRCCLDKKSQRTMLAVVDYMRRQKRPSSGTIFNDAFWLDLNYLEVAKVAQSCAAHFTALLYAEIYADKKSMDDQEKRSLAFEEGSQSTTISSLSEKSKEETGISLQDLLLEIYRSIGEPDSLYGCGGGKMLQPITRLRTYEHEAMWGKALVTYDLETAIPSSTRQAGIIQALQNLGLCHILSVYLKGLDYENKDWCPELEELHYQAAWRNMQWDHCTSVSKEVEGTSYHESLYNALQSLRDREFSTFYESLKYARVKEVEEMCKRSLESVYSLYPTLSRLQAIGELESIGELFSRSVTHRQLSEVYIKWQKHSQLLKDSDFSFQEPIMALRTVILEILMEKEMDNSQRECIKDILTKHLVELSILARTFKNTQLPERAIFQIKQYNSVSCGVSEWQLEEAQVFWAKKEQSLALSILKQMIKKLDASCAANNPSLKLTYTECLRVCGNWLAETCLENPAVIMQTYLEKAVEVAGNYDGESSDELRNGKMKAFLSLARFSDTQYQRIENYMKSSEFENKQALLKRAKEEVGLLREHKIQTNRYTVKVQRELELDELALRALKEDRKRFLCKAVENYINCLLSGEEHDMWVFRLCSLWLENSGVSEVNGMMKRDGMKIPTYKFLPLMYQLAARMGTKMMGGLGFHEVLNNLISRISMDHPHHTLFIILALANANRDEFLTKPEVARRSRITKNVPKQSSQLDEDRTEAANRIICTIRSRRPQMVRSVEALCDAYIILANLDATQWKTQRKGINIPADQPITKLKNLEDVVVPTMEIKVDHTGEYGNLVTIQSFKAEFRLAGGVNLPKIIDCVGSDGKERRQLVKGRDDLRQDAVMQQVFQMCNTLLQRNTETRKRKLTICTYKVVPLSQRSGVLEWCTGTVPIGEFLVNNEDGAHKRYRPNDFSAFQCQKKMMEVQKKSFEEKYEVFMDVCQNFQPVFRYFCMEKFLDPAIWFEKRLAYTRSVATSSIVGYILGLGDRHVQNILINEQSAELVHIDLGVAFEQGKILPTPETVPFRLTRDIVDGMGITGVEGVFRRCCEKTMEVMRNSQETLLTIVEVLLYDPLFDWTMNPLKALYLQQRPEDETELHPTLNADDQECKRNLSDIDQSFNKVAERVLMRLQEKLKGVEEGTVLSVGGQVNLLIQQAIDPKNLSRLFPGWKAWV
Protocol: ATM kinase assay - determination of ATM inhibition (IC50 ATM), TR-FRET
Format: biochemical
Endpoint name: IC50

Take a look at these entries with their results.
| Line notation | IC50 |
| --- | --- |
| COc1cc2ncc3c(c2cc1-c1cn[nH]c1)n(-c1ccnn1C)c(=O)n3C | < 0.01 µM |
| COc1cc2ncc3c(c2cc1-c1cc(C)[nH]n1)n(-c1ncccc1F)c(=O)n3C | < 0.01 µM |
| COc1cc2ncc3c(c2cc1-c1cnn(C)c1)n(-c1ccncc1Cl)c(=O)n3C | < 0.01 µM |
| COc1cc2ncc3c(c2cc1-c1cn(C)nn1)n(-c1ncccc1F)c(=O)n3C | < 0.01 µM |
| CCn1cc(-c2cc3c(cc2OC)ncc2c3n(-c3cn(C)nc3C)c(=O)n2C)cn1 | < 0.001 µM |
| COc1cc2ncc3c(c2cc1-c1cnn(C)c1)n(-c1ccncc1F)c(=O)n3C | < 0.01 µM |
| CCn1cc(-c2cc3c(cc2OC)ncc2c3n(-c3ccncc3)c(=O)n2C)cn1 | < 0.01 µM |
| COc1cc2ncc3c(c2cc1-c1cnn(C)c1)n(-c1cncnc1)c(=O)n3C | < 0.05 µM |
| CCn1cc(-c2cc3c(cc2OC)ncc2c3n(-c3ccncc3F)c(=O)n2C)cn1 | < 0.001 µM |
| COc1cc2ncc3c(c2cc1-c1cn(C)nc1C)n(-c1ncc(F)cc1F)c(=O)n3C | < 0.001 µM |

Note down IC50 recorded for COc1cc2ncc3c(c2cc1-c1cn[nH]c1)n(-c1ccncc1C)c(=O)n3C
< 0.01 µM

Note down IC50 recorded for COc1cc2ncc3c(c2cc1-c1cnn(C)c1)n(-c1ccnc(C#N)c1)c(=O)n3C
< 0.05 µM

Note down IC50 recorded for COc1cc2ncc3c(c2cc1-c1cnn(C)c1)n(-c1ccncc1C)c(=O)n3C
< 0.01 µM

Note down IC50 recorded for CCn1cc(-c2cc3c(cc2OC)ncc2c3n(-c3c(C)cncc3F)c(=O)n2C)cn1
< 0.001 µM

Note down IC50 recorded for COc1cc2ncc3c(c2cc1-c1cnn(C)c1)n(-c1ncccc1F)c(=O)n3C
< 0.001 µM

Note down IC50 recorded for COc1cc2ncc3c(c2cc1-c1cnn(C)c1)n(-c1c(F)cncc1C#N)c(=O)n3C
< 0.01 µM

====

System name: purified human recombinant ATM (ataxia telangiectasia mutated), full length (Homo sapiens (Human), UniProt Q13315)
Protocol: ATM kinase assay - determination of ATM inhibition (IC50 ATM), TR-FRET
Format: biochemical
pIC50: −log10 of the molar value.
Entries and their pIC50 values follow.

Take a look at these entries with their results.
| Molecule | pIC50 |
| --- | --- |
| COc1cc2ncc3c(c2cc1-c1cn[nH]c1)n(-c1ccncc1F)c(=O)n3C | > 9.00 |
| COc1cc2ncc3c(c2cc1-c1cn[nH]c1)n(-c1cnn(C2CCOCC2)c1)c(=O)n3C | > 8.00 |

Note down pIC50 recorded for CCn1cc(-c2cc3c(cc2OC)ncc2c3n(-c3ncccc3F)c(=O)n2C)cn1
> 9.00

====

System name: PI3K p110α/p85α (human) (Homo sapiens (Human), UniProt P42336)
Sequence (P42336 whole entry): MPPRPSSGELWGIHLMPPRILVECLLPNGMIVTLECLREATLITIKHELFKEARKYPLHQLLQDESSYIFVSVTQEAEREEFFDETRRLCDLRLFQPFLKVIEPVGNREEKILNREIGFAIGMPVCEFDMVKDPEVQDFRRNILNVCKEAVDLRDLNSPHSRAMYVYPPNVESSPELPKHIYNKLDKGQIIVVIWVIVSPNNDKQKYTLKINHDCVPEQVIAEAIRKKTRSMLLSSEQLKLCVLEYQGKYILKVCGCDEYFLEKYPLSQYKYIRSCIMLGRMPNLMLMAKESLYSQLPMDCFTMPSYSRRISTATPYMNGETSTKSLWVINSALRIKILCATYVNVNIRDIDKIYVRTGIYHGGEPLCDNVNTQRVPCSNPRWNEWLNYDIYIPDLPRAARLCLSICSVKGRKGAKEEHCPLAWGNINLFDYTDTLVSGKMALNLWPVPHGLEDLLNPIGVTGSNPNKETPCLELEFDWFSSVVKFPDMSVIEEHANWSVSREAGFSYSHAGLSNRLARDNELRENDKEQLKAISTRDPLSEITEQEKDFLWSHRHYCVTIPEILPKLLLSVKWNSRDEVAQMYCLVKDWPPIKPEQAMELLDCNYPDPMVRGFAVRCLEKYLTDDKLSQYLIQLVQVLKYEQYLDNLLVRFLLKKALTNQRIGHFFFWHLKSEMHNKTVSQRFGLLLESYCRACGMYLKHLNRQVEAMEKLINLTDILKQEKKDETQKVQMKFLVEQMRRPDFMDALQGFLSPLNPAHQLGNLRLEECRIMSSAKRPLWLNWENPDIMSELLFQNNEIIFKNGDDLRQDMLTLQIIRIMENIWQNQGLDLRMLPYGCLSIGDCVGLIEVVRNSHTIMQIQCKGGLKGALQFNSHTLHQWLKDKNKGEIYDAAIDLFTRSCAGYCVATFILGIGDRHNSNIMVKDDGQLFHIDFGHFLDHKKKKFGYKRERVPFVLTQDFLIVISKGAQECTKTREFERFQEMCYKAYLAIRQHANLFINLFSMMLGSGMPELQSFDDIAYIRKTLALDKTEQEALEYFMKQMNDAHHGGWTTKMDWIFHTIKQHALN
Sequence (P27986 whole entry partner): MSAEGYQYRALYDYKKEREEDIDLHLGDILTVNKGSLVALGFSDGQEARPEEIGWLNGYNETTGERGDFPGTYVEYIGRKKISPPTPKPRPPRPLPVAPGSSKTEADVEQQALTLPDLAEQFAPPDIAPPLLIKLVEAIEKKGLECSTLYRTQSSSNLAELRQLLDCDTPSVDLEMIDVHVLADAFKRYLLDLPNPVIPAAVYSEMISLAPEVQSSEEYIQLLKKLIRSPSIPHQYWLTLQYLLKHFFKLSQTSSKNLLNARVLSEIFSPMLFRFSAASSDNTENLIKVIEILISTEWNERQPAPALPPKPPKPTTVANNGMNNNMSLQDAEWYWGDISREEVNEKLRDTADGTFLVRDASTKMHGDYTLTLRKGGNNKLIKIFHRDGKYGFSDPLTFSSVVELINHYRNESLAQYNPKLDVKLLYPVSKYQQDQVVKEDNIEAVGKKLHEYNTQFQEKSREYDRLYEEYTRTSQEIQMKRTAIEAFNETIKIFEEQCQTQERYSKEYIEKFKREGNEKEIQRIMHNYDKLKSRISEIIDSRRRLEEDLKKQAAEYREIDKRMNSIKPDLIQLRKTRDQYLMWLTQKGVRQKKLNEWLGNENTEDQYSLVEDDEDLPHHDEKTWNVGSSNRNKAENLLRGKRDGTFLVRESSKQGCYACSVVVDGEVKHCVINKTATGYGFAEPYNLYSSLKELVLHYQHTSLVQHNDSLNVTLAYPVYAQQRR
Protocol: PI3K p110α/p85α (human), non-radioactive assay (HTRF)
Conditions: read-out: IC50 (PI3Kalpha)
pIC50: −log10 of the molar value.
Endpoint name: pIC50

Take a look at these entries with their results.
| Line notation | Endpoint name | Measured |
| --- | --- | --- |
| COc1cc2ncc3c(c2cc1-c1cnn(C)c1)n(-c1ncccc1F)c(=O)n3C | pIC50 | < 4.52 |
| COc1cc2ncc3c(c2cc1-c1cn(C)nc1C)n(-c1ncccc1F)c(=O)n3C | pIC50 | < 4.52 |
| COc1cc2ncc3c(c2cc1-c1cnn(C)c1)n(-c1c(F)cncc1F)c(=O)n3C | pIC50 | < 4.52 |

Now for the molecule whose pIC50 we want.
Note down pIC50 recorded for COc1cc2ncc3c(c2cc1-c1cnn(C)c1)n(-c1c(C)cncc1F)c(=O)n3C
< 5.00

====

System name: purified human recombinant ATM (ataxia telangiectasia mutated), full length (Homo sapiens (Human))
Protocol: ATM kinase assay - determination of ATM inhibition (IC50 ATM), TR-FRET
Assay type: biochemical
Conditions: 10 μM ATP, substrate p53
pIC50: −log10 of the molar value.
Entries and their pIC50 values follow.

| Line notation | pIC50 |
| --- | --- |
| COc1cc2ncc3c(c2cc1-c1cnn(C)c1)n(-c1ncc(C)cc1F)c(=O)n3C | > 9.00 |
| COc1cc2ncc3c(c2cc1-c1cnn(C2CNC2)c1)n(-c1c(F)cncc1OC)c(=O)n3C | > 8.00 |
| COc1cc2ncc3c(c2cc1-c1cn(C)nc1C)n(-c1c(F)cncc1OC(F)F)c(=O)n3C | > 9.00 |

Now for the molecule whose pIC50 we want.
Note down pIC50 recorded for COc1cc2ncc3c(c2cc1-c1cn[nH]c1)n(-c1ncc(C)cc1F)c(=O)n3C
> 9.00

====

System name: purified human recombinant ATM (ataxia telangiectasia mutated), full length (Homo sapiens (Human), UniProt Q13315)
Protocol: ATM kinase assay - determination of ATM inhibition (IC50 ATM), TR-FRET
Type: biochemical
Conditions: 10 μM ATP, substrate p53
pIC50: −log10 of the molar value.
Entries and their pIC50 values follow.

| Line notation | pIC50 |
| --- | --- |
| COc1cnc(-n2c(=O)n(C)c3cnc4cc(OC)c(-c5ccn[nH]5)cc4c32)c(F)c1 | > 8.00 |
| COc1cc2ncc3c(c2cc1-c1cnn(C)c1)n(-c1c(F)cncc1F)c(=O)n3C | > 9.00 |
| COc1cc2ncc3c(c2cc1-c1cn(C)nc1C)n(-c1ncc(F)cc1F)c(=O)n3C | > 9.00 |
| COc1cnc(-n2c(=O)n(C)c3cnc4cc(OC)c(-c5ccc6nc(C)[nH]c6c5)cc4c32)c(F)c1 | > 9.00 |
| COc1cnc(-n2c(=O)n(C)c3cnc4cc(OC)c(-c5ccc6nc[nH]c6c5)cc4c32)c(F)c1 | > 8.00 |

Note down pIC50 recorded for COc1cc2ncc3c(c2cc1-c1cn(C)nc1C)n(-c1cn(C)nc1C)c(=O)n3C
> 9.00

Note down pIC50 recorded for COc1cc2ncc3c(c2cc1-c1cnn(C)c1)n(-c1c(F)cncc1OCF)c(=O)n3C
> 9.00

====

pIC50: −log10 of the molar value. Where a name gives a salt, the structure may show the parent alone.
# collection of pIC50 values tested on mTOR (human) (Homo sapiens (Human), UniProt P42345)

Take a look at these entries with their results.
| Compound | pIC50 |
| --- | --- |
| CCn1cc(-c2cc3c(cc2OC)ncc2c3n(-c3c(C)cncc3F)c(=O)n2C)cn1 [Compound Example 38] | < 4.52 |
| COc1cc2ncc3c(c2cc1-c1cn(C)nc1C)n(-c1ncc(F)cc1F)c(=O)n3C [Compound Example 11] | < 4.52 |
| COc1cc2ncc3c(c2cc1-c1cn[nH]c1)n(-c1ccncc1F)c(=O)n3C [Compound Example 9] | < 5.00 |
| COc1cc2ncc3c(c2cc1-c1cnn(C)c1)n(-c1ncc(F)cn1)c(=O)n3C [Compound Example 36] | < 4.52 |
| COc1cc2ncc3c(c2cc1-c1cn[nH]c1)n(-c1c(F)cncc1F)c(=O)n3C [Compound Example 2] | < 5.30 |

Provide pIC50, tested on mTOR (human) (Homo sapiens (Human), UniProt P42345), for COc1cc2ncc3c(c2cc1-c1cn(C)nc1C)n(-c1cn(C)nc1C)c(=O)n3C [Compound Example 10] .
< 4.52

Provide pIC50, tested on mTOR (human) (Homo sapiens (Human), UniProt P42345), for CCn1cc(-c2cc3c(cc2OC)ncc2c3n(-c3ccncc3)c(=O)n2C)cn1 [compound 62] .
< 4.52

Provide pIC50, tested on mTOR (human) (Homo sapiens (Human), UniProt P42345), for CCn1cc(-c2cc3c(cc2OC)ncc2c3n(-c3c(F)cncc3F)c(=O)n2C)cn1 [Compound Example 26] .
< 4.52

Provide pIC50, tested on mTOR (human) (Homo sapiens (Human), UniProt P42345), for COc1cc2ncc3c(c2cc1-c1cnn(C)c1)n(-c1ncc(C)cc1F)c(=O)n3C [Compound Example 27] .
< 4.52

Provide pIC50, tested on mTOR (human) (Homo sapiens (Human), UniProt P42345), for COc1cc2ncc3c(c2cc1-c1cnn(C)c1)n(-c1ncncc1F)c(=O)n3C [Compound Example 31, hydrochloride] .
< 4.52

Provide pIC50, tested on mTOR (human) (Homo sapiens (Human), UniProt P42345), for COc1cc2ncc3c(c2cc1-c1cn[nH]c1)n(-c1c(C)cncc1F)c(=O)n3C [Compound Example 8] .
< 5.30

Provide pIC50, tested on mTOR (human) (Homo sapiens (Human), UniProt P42345), for COc1cc2ncc3c(c2cc1-c1cn[nH]c1)n(-c1ccncc1C)c(=O)n3C [Compound Example 19] .
< 5.30

Provide pIC50, tested on mTOR (human) (Homo sapiens (Human), UniProt P42345), for CCc1cncc(F)c1-n1c(=O)n(C)c2cnc3cc(OC)c(-c4cnn(C)c4)cc3c21 [Compound Example 12] .
< 4.52

Provide pIC50, tested on mTOR (human) (Homo sapiens (Human), UniProt P42345), for COc1cc2ncc3c(c2cc1-c1cnn(C)c1)n(-c1ccncc1C#N)c(=O)n3C [Compound Example 46] .
< 4.52

Provide pIC50, tested on mTOR (human) (Homo sapiens (Human), UniProt P42345), for COc1cc2ncc3c(c2cc1-c1cnn(C)c1)n(-c1c(F)cncc1OC)c(=O)n3C [Compound Example 15] .
< 4.52

Provide pIC50, tested on mTOR (human) (Homo sapiens (Human), UniProt P42345), for COc1cc2ncc3c(c2cc1-c1cnn(C)c1)n(-c1nccs1)c(=O)n3C [Compound Example 47] .
< 4.52

Provide pIC50, tested on mTOR (human) (Homo sapiens (Human), UniProt P42345), for CCn1cc(-c2cc3c(cc2OC)ncc2c3n(-c3ncccc3F)c(=O)n2C)cn1 [Compound Example 24] .
< 4.52

Provide pIC50, tested on mTOR (human) (Homo sapiens (Human), UniProt P42345), for COc1cc2ncc3c(c2cc1-c1cnn(C)c1)n(-c1cn(C)cn1)c(=O)n3C [compound 59] .
< 4.52

Provide pIC50, tested on mTOR (human) (Homo sapiens (Human), UniProt P42345), for COc1cc2ncc3c(c2cc1-c1cnn(C)c1)n(-c1c(F)cncc1F)c(=O)n3C [Compound Example 22] .
< 4.52

Provide pIC50, tested on mTOR (human) (Homo sapiens (Human), UniProt P42345), for COc1cc2ncc3c(c2cc1-c1cn[nH]c1)n(-c1cnn(C)c1)c(=O)n3C [Compound Example 17] .
< 5.00

Provide pIC50, tested on mTOR (human) (Homo sapiens (Human), UniProt P42345), for COc1cc2ncc3c(c2cc1-c1cn(C)nc1C)n(-c1c(F)cncc1OC)c(=O)n3C [Compound Example 4] .
< 4.52

Provide pIC50, tested on mTOR (human) (Homo sapiens (Human), UniProt P42345), for COc1cc2ncc3c(c2cc1-c1cnn(C)c1)n(-c1cnn(C2CCOCC2)c1)c(=O)n3C [Compound Example 55] .
< 4.52

Provide pIC50, tested on mTOR (human) (Homo sapiens (Human), UniProt P42345), for CCc1cncc(F)c1-n1c(=O)n(C)c2cnc3cc(OC)c(-c4cnn(CC)c4)cc3c21 [Compound Example 25] .
< 4.52

Provide pIC50, tested on mTOR (human) (Homo sapiens (Human), UniProt P42345), for COc1cc2ncc3c(c2cc1-c1cnn(C)c1)n(-c1ccncc1)c(=O)n3C [compound 58] .
< 4.52

Provide pIC50, tested on mTOR (human) (Homo sapiens (Human), UniProt P42345), for COc1cc2ncc3c(c2cc1-c1cnn(C)c1)n(-c1ccncc1OC)c(=O)n3C [Compound Example 28] .
< 4.52

Provide pIC50, tested on mTOR (human) (Homo sapiens (Human), UniProt P42345), for COc1cc2ncc3c(c2cc1-c1cnn(C)c1)n(-c1ccncc1F)c(=O)n3C [Compound Example 35] .
< 4.52

Provide pIC50, tested on mTOR (human) (Homo sapiens (Human), UniProt P42345), for COc1cc2ncc3c(c2cc1-c1cnn(C)c1)n(-c1ccncc1C)c(=O)n3C [Compound Example 40] .
< 4.52
